# Tested Target: T1, human CD47 protein, His Tag (ACRObiosystems, Cat. No. CD7-H5227) (human, UniProt Q08722 19-139)
# T1 construct: bought reagent; also called CD47-His; hCD47-His Tag; not shown: His tag
# T1 sequence (Q08722 19-139 limits assumed): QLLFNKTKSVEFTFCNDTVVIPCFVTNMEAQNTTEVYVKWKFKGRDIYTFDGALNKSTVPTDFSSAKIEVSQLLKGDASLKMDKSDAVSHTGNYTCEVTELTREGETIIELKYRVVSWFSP
# Protocol: ELISA, plate coated with CD47-His
# key: entry, value: EC50
Entry rule: numbers only, all in µg/mL.

hz3F10-2.1 (antibody, human IgG4 S228P, kappa, V domains shown, humanized 3F10, full-length heavy and light chains) VH: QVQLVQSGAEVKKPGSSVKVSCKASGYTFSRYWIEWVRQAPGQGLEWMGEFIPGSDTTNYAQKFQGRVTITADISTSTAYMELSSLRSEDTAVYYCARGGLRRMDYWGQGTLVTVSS VL: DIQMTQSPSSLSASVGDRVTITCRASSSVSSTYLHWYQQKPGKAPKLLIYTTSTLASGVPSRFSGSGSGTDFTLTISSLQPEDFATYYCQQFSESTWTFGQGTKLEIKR
0.0809
hz3F10-5.2 (antibody, human IgG4 S228P, kappa, V domains shown, humanized 3F10, full-length heavy and light chains) VH: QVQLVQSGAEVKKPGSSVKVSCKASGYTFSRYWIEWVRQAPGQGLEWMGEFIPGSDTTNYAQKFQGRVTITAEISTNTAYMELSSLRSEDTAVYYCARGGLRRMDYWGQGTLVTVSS VL: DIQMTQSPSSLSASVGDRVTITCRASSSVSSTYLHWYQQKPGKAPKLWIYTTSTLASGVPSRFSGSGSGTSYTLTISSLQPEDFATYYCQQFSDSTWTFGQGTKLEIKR
0.106
hz3F10-3.2 (antibody, human IgG4 S228P, kappa, V domains shown, humanized 3F10, full-length heavy and light chains) VH: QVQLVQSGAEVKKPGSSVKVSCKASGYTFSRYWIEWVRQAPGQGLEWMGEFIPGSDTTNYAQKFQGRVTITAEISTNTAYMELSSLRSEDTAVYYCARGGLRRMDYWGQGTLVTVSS VL: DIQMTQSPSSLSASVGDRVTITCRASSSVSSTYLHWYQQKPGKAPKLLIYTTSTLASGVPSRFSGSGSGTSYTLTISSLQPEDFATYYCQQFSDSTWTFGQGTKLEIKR
0.166
hz14A9-2.3 (antibody, human IgG4 S228P, kappa, V domains shown, humanized 14A9, full-length heavy and light chains) VH: QVQLVQSGAEVKKPGASVKVSCKVSGFNIEDDYIEWVRQAPGQGLEWMGRIDPANDKTKYAQKFQGRVTMTGDTSTNTVYMELSSLRSEDTAVYYCARPGLRRYYSMDYWGQGTLVTVSS VL: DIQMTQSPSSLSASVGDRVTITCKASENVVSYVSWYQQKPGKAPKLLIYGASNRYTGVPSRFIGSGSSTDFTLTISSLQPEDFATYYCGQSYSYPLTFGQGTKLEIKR
0.157
hz3F10-6.2 (antibody, human IgG4 S228P, kappa, V domains shown, humanized 3F10, full-length heavy and light chains) VH: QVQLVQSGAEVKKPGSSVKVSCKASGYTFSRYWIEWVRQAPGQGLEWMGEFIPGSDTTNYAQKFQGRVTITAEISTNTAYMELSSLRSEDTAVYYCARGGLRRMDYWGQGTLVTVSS VL: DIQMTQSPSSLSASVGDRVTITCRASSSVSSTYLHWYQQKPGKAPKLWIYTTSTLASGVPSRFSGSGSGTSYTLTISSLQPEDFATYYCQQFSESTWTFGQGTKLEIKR
0.129

In: Which EC50 value is on record for hz14A9-2.4 (antibody, human IgG4 S228P, kappa, V domains shown, humanized 14A9, full-length heavy and light chains) VH: QVQLVQSGAEVKKPGASVKVSCKVSGFNIEDDYIEWVRQAPGQGLEWMGRIDPANDKTKYAQKFQGRVTMTGDTSTNTVYMELSSLRSEDTAVYYCTRPGLRRYYSMDYWGQGTLVTVSS VL: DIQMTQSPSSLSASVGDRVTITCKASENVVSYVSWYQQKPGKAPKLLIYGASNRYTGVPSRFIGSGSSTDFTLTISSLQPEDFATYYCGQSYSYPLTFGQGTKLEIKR ?
Out: 0.339

In: What do we get for hz3F10-1.1 (antibody, human IgG4 S228P, kappa, V domains shown, humanized 3F10, full-length heavy and light chains) VH: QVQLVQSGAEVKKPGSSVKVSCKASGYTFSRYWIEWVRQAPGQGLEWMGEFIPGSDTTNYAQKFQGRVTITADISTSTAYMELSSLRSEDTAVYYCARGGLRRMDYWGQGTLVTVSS VL: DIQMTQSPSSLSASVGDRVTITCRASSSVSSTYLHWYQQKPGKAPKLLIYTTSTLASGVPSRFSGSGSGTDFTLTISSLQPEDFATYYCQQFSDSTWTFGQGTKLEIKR ?
Out: 0.07

In: Entry to check: hz3F10-4.1 (antibody, human IgG4 S228P, kappa, V domains shown, humanized 3F10, full-length heavy and light chains) VH: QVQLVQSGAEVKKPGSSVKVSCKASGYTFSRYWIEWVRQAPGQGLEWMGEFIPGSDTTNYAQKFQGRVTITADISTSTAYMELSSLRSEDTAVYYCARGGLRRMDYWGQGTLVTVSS VL: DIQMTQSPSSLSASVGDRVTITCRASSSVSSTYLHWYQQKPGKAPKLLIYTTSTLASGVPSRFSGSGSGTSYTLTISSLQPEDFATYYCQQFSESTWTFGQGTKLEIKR
Out: 0.115

In: Another binder: hz3F10-5.1 (antibody, human IgG4 S228P, kappa, V domains shown, humanized 3F10, full-length heavy and light chains) VH: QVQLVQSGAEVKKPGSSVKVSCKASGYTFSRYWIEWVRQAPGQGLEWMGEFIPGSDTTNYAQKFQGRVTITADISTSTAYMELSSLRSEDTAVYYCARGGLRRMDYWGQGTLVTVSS VL: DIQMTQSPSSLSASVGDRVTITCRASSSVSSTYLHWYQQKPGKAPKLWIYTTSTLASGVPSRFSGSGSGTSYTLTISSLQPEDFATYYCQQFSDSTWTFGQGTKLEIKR
Out: 0.0993

In: Similarly, hz3F10-1.2 (antibody, human IgG4 S228P, kappa, V domains shown, humanized 3F10, full-length heavy and light chains) VH: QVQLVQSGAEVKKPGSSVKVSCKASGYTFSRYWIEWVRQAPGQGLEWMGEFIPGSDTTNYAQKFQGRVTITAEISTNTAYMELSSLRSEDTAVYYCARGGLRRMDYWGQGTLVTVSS VL: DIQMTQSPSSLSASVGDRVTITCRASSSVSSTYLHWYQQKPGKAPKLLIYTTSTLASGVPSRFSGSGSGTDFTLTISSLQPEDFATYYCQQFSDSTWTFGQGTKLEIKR ?
Out: 0.125

In: Next: hz3F10-6.1 (antibody, human IgG4 S228P, kappa, V domains shown, humanized 3F10, full-length heavy and light chains) VH: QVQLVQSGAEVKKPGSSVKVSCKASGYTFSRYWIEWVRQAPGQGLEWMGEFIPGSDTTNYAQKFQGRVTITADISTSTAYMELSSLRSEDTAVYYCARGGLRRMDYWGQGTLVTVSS VL: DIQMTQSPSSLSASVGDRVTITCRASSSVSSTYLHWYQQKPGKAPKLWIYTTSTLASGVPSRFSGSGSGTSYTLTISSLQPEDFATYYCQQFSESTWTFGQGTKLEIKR
Out: 0.0563
